Values compiled from patent US20110300138A1.

- Experimental System: T1, thyroid stimulating hormone receptor (full length human TSHR) (human, UniProt P16473 22-764)
- T1 construct: Full length TSHR coated onto plastic tubes (TSHR coated tubes, as in WO2004/050708A2); also called TSH receptor
- Assay Notes: competitor ^125I-K1-70 IgG, TSHR coated tubes; 30 µg/mL in assay buffer

| Binder | Inhibition of binding (%) |
| --- | --- |
| K1-70 Fab (Fab, V domains shown) VH: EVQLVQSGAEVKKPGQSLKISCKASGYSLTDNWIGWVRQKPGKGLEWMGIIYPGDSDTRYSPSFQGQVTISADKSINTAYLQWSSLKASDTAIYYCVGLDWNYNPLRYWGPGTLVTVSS VL: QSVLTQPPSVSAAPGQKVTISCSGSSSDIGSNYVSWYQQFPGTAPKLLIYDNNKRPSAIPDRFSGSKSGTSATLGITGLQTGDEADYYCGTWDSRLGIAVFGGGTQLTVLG | 90.7% |
| K1-70 IgG (antibody, V domains shown, Human IgG1 lambda purified from hetero-hybridoma supernatant) VH: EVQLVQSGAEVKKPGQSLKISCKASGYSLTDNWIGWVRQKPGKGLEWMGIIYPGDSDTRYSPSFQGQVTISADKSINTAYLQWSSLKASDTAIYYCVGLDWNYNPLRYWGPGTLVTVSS VL: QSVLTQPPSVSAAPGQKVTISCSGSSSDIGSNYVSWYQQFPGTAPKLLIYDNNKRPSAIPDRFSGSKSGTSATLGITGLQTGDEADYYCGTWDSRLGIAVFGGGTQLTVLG | 93.1% |
| K1-18 Fab (Fab, V domains shown) VH: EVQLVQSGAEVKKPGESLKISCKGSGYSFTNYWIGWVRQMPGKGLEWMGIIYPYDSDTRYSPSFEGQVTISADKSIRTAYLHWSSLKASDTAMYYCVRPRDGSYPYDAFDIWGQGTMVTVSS VL: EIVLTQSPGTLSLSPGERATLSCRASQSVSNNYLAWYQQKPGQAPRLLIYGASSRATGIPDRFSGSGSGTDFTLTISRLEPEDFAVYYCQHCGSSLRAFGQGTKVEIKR | 83.3% |
| K1-18 IgG (antibody, V domains shown, Human IgG1 kappa purified from hetero-hybridoma supernatant; it is not part of the secreted protein; also called human monoclonal TSHR autoantibody K1-18 (stimulating)) VH: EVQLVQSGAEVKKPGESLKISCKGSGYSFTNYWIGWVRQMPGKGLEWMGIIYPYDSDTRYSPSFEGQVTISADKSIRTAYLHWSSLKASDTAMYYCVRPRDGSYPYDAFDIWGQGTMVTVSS VL: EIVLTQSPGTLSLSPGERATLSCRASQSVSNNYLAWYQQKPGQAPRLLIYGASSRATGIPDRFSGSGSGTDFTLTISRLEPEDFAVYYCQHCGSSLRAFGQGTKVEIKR | 91.2% |
